The origin of these recorded values is PubChem BioAssay (NCI).

test system: MDA-MB-468 breast; test: NCI-60 one-dose screen, 48 h; conditions: 10 µM unless noted
About 83,000 compounds went through this panel and 20% of them were active in at least one assay; those are over-represented in the sample as a whole. Active and inactive are the calls of the source. The calls were made as follows: active = growth percent below 10; inactive = the rest.
Please answer using one outcome listed in active, inactive

Query :: Per the assay record, what outcome was assigned to O=S1(=O)CCC(N(/N=C/c2ccco2)c2ccccc2)C1 (stereo unspecified) ?
Result :: inactive

Query :: Just curious, what result did Nc1c(C(=O)Nc2c(Cl)cccc2Cl)sc2nc3c(cc12)C(=O)CCC3 get here?
Result :: active

Query :: GET /call?item= O=C1CC(=O)N2CSCN(C(c3ccccc3)c3nc4ncncc4[nH]3)C2=N1 (stereo unspecified) returns the recorded outcome of this test.
Result :: inactive

Query :: # outcome recorded in this test, key = COC(=O)/C(=C\c1ccc(OC)cc1)C(=O)N1c2ccccc2Sc2ccccc21
Result :: inactive

Query :: Returns: the outcome recorded for COc1ccc(CNC(=O)C(=O)[C@H](Cc2ccccc2)NC(=O)c2[nH]c3ccccc3c(=O)c2C)cc1 in this assay.
Result :: inactive

Query :: Outcome? CCNCc1ccncc1
Result :: inactive

Query :: How did this test come out for OC(c1cc(-c2ccc(C(F)(F)F)cc2)nc(-c2ccc(C(F)(F)F)cc2)c1)C1CCCCN1 (stereo unspecified) ?
Result :: active

Query :: Status in this test for COc1ccc(-n2nc(C)c3c(Nc4ccc(NC(=O)Nc5cc(C(F)(F)F)ccc5F)cc4)ncnc32)cc1 ?
Result :: inactive

Query :: Fill in: this test's call for CC(C)C(C)(C)c1ccc(O)cc1 is ___
Result :: inactive

Query :: Can you look up the reported call for CCCn1nc(-c2ccccc2)c2c(-c3ccccc3)onc2c1=O for me?
Result :: inactive

Query :: Which outcome was assigned to c1cc2nc(-c3cn[nH]c3)c3c(c2cc1-c1cn[nH]c1)C1CCC3C1 (stereo unspecified) in this test?
Result :: inactive
